Source of measurements: patent US20220177596A1

- TARGET: T1, human-CD40 monomer (human, UniProt P25942 21-193, limits assumed)
- T1 construct: also called hCD40-monomer; human-CD40-monomer protein
- T1 sequence (P25942 21-193 limits assumed): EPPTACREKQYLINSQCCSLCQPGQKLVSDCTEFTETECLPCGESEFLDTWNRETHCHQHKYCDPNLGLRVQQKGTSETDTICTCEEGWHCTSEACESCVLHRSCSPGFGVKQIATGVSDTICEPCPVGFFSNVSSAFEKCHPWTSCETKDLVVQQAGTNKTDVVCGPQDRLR
- ASSAY_DETAILS: SPR 2 pt screen, Ab on protein A
- Method: The VH sequences were formatted in the context of an IgG1.3f isotype. The Vκ sequences were formatted as a full light chain with a common CL sequence. All 55 combinations of these humanized HC and LC constructs, as well as the chimeric Y1238 molecule were expressed as 3 ml supernatants for binding analysis by SPR. […]
# note: boundary value 0.0002 s⁻¹ maps to NO; koff below it maps to YES

Would you please look over these solved cases?
[
  {
    "BINDER": "humanized Y1238 hz45 (hz-HC9 / hz-LC5), IgG1.3f (antibody, V domains shown, IgG1.3f heavy constant, common CL; expression supernatant; also called Sup 45) VH: QVQLVQSGAEVVKPGASVKVSCKASGYAFTNYLIEWVRQRPGQGLEWMGVINPGSGGTNYNEKFKGRVTLTADKSSSTAYMQLSRLRSDDTAVYFCARSQLGRRFDYWGQGTTVTVSS VL: DIQMTQSPSSLSASVGDRVTITCKASQDVRTGVAWYQQKPGQAPKLLIYSASYRNTGVPSRFSGSRSGTDFTFTISSLQPEDIAVYYCQQHYSPPYTFGGGTKVEIK",
    "CATEGORY_LABEL": "NO"
  },
  {
    "BINDER": "humanized Y1238 hz21 (hz-HC5 / hz-LC1), IgG1.3f (antibody, V domains shown, IgG1.3f heavy constant, common CL; expression supernatant; also called Sup 21) VH: QVQLVQSGAEVKKPGASVKVSCKASGYAFTNYLIEWVRQRPGQGLEWMGVINPGSGGTNYNEKFKGRVTMTADKSISTAYMELSRLRSDDTAVYYCARSQLGRRFDYWGQGTLVTVSS VL: DIQMTQSPSSLSASVGDRVTITCKASQDVRTGVAWYQQKPGKAPKLLIYSASYRNTGVPSRFSGSGSGTDFTFTISSLQPEDIATYYCQQHYSPPYTFGGGTKVEIK",
    "CATEGORY_LABEL": "YES"
  },
  {
    "BINDER": "humanized Y1238 hz32 (hz-HC7 / hz-LC2), IgG1.3f (antibody, V domains shown, IgG1.3f heavy constant, common CL; expression supernatant; also called Sup 32) VH: QVQLVQSGAEVVKPGASVKVSCKASGYAFTNYLIEWVRQRPGQGLEWMGVINPGSGGTNYNEKFKGRVTMTADKSSSTAYMQLSRLRSDDTAVYFCARSQLGRRFDYWGQGTLVTVSS VL: DIQMTQSPSSLSASVGDRVTITCKASQDVRTGVAWYQQKPGKAPKLLIYSASYRNTGVPSRFSGSRSGTDFTFTISSLQPEDIATYYCQQHYSPPYTFGGGTKVEIK",
    "CATEGORY_LABEL": "YES"
  }
]

q: Is koff strictly under 0.0002 s⁻¹ for the entry humanized Y1238 hz30 (hz-HC6 / hz-LC5), IgG1.3f (antibody, V domains shown, IgG1.3f heavy constant, common CL; expression supernatant; also called Sup 30) VH: QVQLVQSGAEVKKPGASVKVSCKASGYAFTNYLIEWVRQRPGQGLEWMGVINPGSGGTNYNEKFKGRVTLTADKSISTAYMELSRLRSDDTAVYYCARSQLGRRFDYWGQGTLVTVSS VL: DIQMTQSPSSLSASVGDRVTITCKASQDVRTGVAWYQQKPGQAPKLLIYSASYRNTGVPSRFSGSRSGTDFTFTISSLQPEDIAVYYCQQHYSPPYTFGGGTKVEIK ?
a: NO

q: Is koff strictly under 0.0002 s⁻¹ for the entry humanized Y1238 hz55 (hz-HC11 / hz-LC5), IgG1.3f (antibody, V domains shown, IgG1.3f heavy constant, common CL; expression supernatant; also called Sup 55) VH: QVQLVQSGAEVKKPGASVKVSCKASGYAFTNYLIEWVRQRPGQGLEWMGVINPGSGGTNYNEKFKGRVTMTRDKSSSTAYMELSRLRSDDTAVYFCARSQLGRRFDYWGQGTLVTVSS VL: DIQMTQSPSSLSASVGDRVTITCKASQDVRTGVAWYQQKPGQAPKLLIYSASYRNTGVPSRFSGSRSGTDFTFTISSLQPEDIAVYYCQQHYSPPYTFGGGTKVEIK ?
a: NO
